ASSAY_METHOD_TEXT: clinical
CONDITION_SUMMARY: human, in vivo
Quick reference: concentration at 3 h of the listed items.
ASSAY_ENDPOINT: concentration at 3 h (ng/mL)

molecule=CCCCc1nc(Cl)c(CO)n1Cc1ccc(-c2ccccc2-c2nn[nH]n2)cc1 unit_text=ng/mL value=81.5
molecule="CC[C@H](C)C(=O)O[C@H]1C[C@H](O)C=C2C=C[C@H](C)[C@H](CC[C@@H](O)C[C@@H](O)CC(=O)O)[C@H]21 [Pravastatin sodium, pravastatin sodium]" unit_text=ng/mL value=42.5

====

ASSAY_METHOD_TEXT: clinical
CONDITION_SUMMARY: human, plasma, oral
ASSAY_ENDPOINT: concentration at 6 h (µg/mL)

item_smiles=O=C(O)c1ccccc1O value=0.0502

src = patent US20130345182A1
